- Test system: FL5.12
- RUN DESCRIPTION: Downregulation of CD98 expression level in mouse FL5.12A cells at 2.5 uM measured at 3 hrs by flow cytometric analysis
- Format: functional
// reported Activity for each item listed
State just the number; it will be interpreted in %.

SMILES NOTATION: CCCCCCCCCCCCCCc1ccc(CO[C@@H]2CN[C@@H](CO)C2)cc1.Cl
UNIT STRING: %
Activity: 12

Exercise: Fill in: Activity of `CCCCCC/C=C/c1ccc([C@H]2CCN(C(C)=O)[C@@H]2CO)cc1` is ___
Solution: 40

====

// reported Activity for each item listed
- System: FL5.12
- RUN DESCRIPTION: Downregulation of CD98 expression level in mouse FL5.12A cells at 2.5 uM measured at 3 hrs by flow cytometric analysis
- Type: functional
Give the number first and the unit second.

Would you please look over these solved cases?
COMPOUND: CCCC/C=C/c1ccc(CO[C@H]2CN[C@H](CO)C2)cc1.Cl
Activity: 9%
--
COMPOUND: CCCCCCCCc1ccc([C@H]2CCN[C@@H]2CO)cc1.Cl
Activity: 54%
--
COMPOUND: CCCCCC/C=C/c1ccc(CO[C@H]2C[C@H](CO)N(C)C2)cc1.Cl
Activity: 31%
--
COMPOUND: CCCCCCCCc1ccc(CO[C@@H]2CN[C@@H](CO)C2)cc1.Cl
Activity: 63%
--
COMPOUND: CCCCCC/C=C/c1ccc(CO[C@H]2CN[C@H](CO)C2)cc1.Cl
Activity: 41%

Exercise: Fill in: Activity of `CCCCCCCCCCc1ccc(CO[C@H]2CN[C@H](CO)C2)cc1.Cl` is ___
Solution: 28%

Exercise: # repeat for `CCCCCC/C=C/c1ccc(CO[C@@H]2CN[C@@H](CO)C2)cc1.Cl`
Solution: 64%

Exercise: # repeat for CCCCCCCCCCCCC/C=C/[C@@H](O)[C@@H](N)CO [SPHINGOSINE]
Solution: 48%

Exercise: # repeat for `CCCCCCCCCCCCO[C@H]1CN[C@H](CO)C1.Cl`
Solution: 45%

Exercise: # repeat for `CCCCCCCCCCCCCCc1ccc(CO[C@H]2CN[C@H](CO)C2)cc1.Cl`
Solution: 19%

====

- System: FL5.12
- RUN DESCRIPTION: Downregulation of CD98 expression level in mouse FL5.12A cells at 2.5 uM measured at 3 hrs by flow cytometric analysis
- Format: functional
Values of Activity greater than or equal to 30% map to met; values below map to not met.

Observe how each entry below is paired with its result.
MOLECULE: CCCCCCCCCCCCc1ccc(CO[C@@H]2CN[C@@H](CO)C2)cc1.Cl
CLASSIFICATION: not met

MOLECULE: CCCCCCCCc1ccc([C@H]2CCN(C(C)=O)[C@@H]2CO)cc1
CLASSIFICATION: met

Exercise: Is Activity for CCCCCCCCCCCCC/C=C/[C@@H](O)[C@H](CO)N(C)C [DIMETHYLSPINGOSINE] at or above 30%?
Solution: met

Exercise: # repeat for `CCCCCCCCCC/C=C/c1ccc(CO[C@@H]2CN[C@@H](CO)C2)cc1.Cl`
Solution: met

Exercise: # repeat for `CCCCCCCCCCCCO[C@@H]1CN[C@@H](CO)C1.Cl`
Solution: met

Exercise: # repeat for `CCCCCCCCCCCC/C=C/c1ccc(CO[C@@H]2CN[C@@H](CO)C2)cc1.Cl`
Solution: not met
